Biological target: prolyl endopeptidase from Flavobacterium (Elizabethkingia meningoseptica)
Sequence (P27028 21-705): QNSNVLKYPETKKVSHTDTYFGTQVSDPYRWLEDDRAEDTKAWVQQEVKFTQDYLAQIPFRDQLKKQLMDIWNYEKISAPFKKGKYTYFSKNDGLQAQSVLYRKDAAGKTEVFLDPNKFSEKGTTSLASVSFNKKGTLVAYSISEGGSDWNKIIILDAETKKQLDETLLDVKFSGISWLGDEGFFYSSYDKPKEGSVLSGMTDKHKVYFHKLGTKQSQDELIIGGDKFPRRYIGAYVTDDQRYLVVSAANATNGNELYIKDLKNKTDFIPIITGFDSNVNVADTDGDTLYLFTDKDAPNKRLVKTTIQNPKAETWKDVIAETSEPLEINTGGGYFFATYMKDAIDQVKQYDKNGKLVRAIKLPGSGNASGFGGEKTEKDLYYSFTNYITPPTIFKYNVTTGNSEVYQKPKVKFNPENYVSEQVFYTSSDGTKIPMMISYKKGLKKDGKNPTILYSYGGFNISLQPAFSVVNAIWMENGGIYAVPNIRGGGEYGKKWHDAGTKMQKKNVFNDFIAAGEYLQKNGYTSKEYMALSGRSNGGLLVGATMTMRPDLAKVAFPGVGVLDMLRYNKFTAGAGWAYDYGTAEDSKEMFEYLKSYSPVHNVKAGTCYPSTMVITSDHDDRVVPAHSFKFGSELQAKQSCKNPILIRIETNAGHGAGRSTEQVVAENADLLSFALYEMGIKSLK
Assay: biochemical
Property: IC50

[[record]]
compound = "COc1ccc(C(=O)N2CCCC2=O)cc1 [Aniracetam, reference compound]"
observed = "> 1000 µM"


###

Recorded IC50 values (prolyl endopeptidase prepared from canine brains (Canis lupus familiaris)) are given below.
Property: IC50

[[record]]
molecular_string = "O=C([C@@H]1CSCN1C(=O)CCCc1ccccc1)N1CCCC1"
observed = "31 nM"

[[record]]
molecular_string = "O=C([C@@H]1CSCN1C(=O)CCCc1ccccc1)N1CCSC1"
observed = "17 nM"

[[record]]
molecular_string = "O=C([C@@H]1CCCN1C(=O)CCCc1ccccc1)N1CCSC1"
observed = "41 nM"


###

Molecular target: UniProtKB P27028
Assay: biochemical
Settings: read-out: Inhibition Potency, IC50
// reported IC50 per item
Property: IC50 (nM)

[[record]]
molecular_string = "O=C([C@@H]1CCCN1C(=O)CCCc1ccccc1)N1CCSC1"
observed = 150

[[record]]
molecular_string = "O=C([C@@H]1CSCN1C(=O)CCCc1ccccc1)N1CCSC1"
observed = 87

